method-summary: antibacterial activity against Clostridioides difficile – 10-point retest, dose response (AID 1259246)
measurement-context: Clostridioides difficile clinical isolate growth, OD600, 24 h; at 135 µM (top of the series)
Results filed as inconclusive are left out.
measure: activity change, negative = inhibition (%)
Answer with a number only, understood to be in %.

C[C@@H]1CN([C@@H](C)CO)C(=O)Cc2cc(NS(C)(=O)=O)ccc2O[C@@H]1CN(C)Cc1ccc(-c2ccccc2)cc1
16.9
C[C@@H]1CN([C@@H](C)CO)C(=O)Cc2cc(NC(=O)C3CC3)ccc2O[C@@H]1CN(C)Cc1ccccc1
0.355
COc1ccc(S(=O)(=O)N(C)C[C@H]2Oc3ccc(NC(=O)C4CC4)cc3CC(=O)N([C@H](C)CO)C[C@H]2C)cc1
-2.76
C[C@H](CO)N1C[C@H](C)[C@H](CN(C)Cc2ccc(F)cc2)Oc2ncc(-c3cc4ccccc4o3)cc2C1=O
52.5
C[C@H](CO)N1C[C@H](C)[C@H](CN(C)Cc2ccc(Oc3ccccc3)cc2)Oc2ccc(NC(=O)CCCN(C)C)cc2CC1=O
34.3

Just so you know, measured activity change, negative = inhibition for C[C@@H]1CN([C@@H](C)CO)C(=O)Cc2cc(NC(=O)CCCN(C)C)ccc2O[C@H]1CN(C)C came out at -6.21

Just so you know, measured activity change, negative = inhibition for O=C(C[C@H]1C[C@@H]2c3cc(NC(=O)Nc4ccc(F)cc4)ccc3O[C@@H]2[C@H](CO)O1)NC1CCCCC1 came out at -1.13

* * *

method-summary: antibacterial activity against Clostridioides difficile – 10-point retest, dose response (AID 1259246)
measurement-context: Clostridioides difficile clinical isolate growth, OD600, 24 h; at 135 µM (top of the series)
Records with an inconclusive call do not appear.
Outcome label depends on activity change, negative = inhibition relative to 10%: at/above gives label 1, below gives label 0.

Look over these answered cases.
CO[C@H]1CN(C)C(=O)c2cc(NC(=O)c3ccc(-c4ccccc4)cc3)ccc2OC[C@H](C)NC[C@@H]1C
label 1
C[C@@H]1CN([C@H](C)CO)C(=O)c2cc(NC(=O)Nc3ccc4c(c3)OCO4)ccc2O[C@H]1CN(C)Cc1ccccc1
label 0
C[C@@H]1CN([C@H](C)CO)C(=O)c2cc(NC(=O)Nc3cccc4ccccc34)ccc2O[C@@H](C)CCCCO[C@H]1CN(C)C(=O)c1ccccc1
label 1
Cc1ccc(S(=O)(=O)N[C@H]2CC[C@@H](CCNS(=O)(=O)Cc3ccccc3)O[C@H]2CO)cc1
label 0

[ask] Does CO[C@@H]1CN(C)C(=O)c2cc(NC(=O)c3nc4ccccc4s3)ccc2OC[C@H](C)N(Cc2ccncc2)C[C@H]1C have a reported activity change, negative = inhibition of at least 10%?
[reply] label 0

[ask] Does CO[C@@H]1CN(C)C(=O)c2cc(NC(=O)c3ccc(Oc4ccccc4)cc3)ccc2OC[C@H](C)NC[C@H]1C have a reported activity change, negative = inhibition of at least 10%?
[reply] label 1

[ask] Does O=C(C[C@H]1C[C@H]2c3cc(NC(=O)Nc4ccccc4)ccc3O[C@H]2[C@@H](CO)O1)NC1CCCC1 have a reported activity change, negative = inhibition of at least 10%?
[reply] label 1

* * *

method-summary: antibacterial activity against Clostridioides difficile – 10-point retest, dose response (AID 1259246)
measurement-context: Clostridioides difficile clinical isolate growth, OD600, 24 h; at 135 µM (top of the series)
Inconclusive results are not listed.
measure: activity change, negative = inhibition (%)
Answer with a number only, understood to be in %.

Consider the reported activity change, negative = inhibition for these molecules:
O=C(C[C@H]1C[C@@H]2c3cc(NC(=O)Nc4ccccc4)ccc3O[C@@H]2[C@H](CO)O1)NC1CCCC1
-0.545
O=C(N[C@H]1CC[C@H](CCNS(=O)(=O)Cc2ccccc2)O[C@H]1CO)c1ccc2c(c1)OCO2
-7.24

Just so you know, measured activity change, negative = inhibition for CO[C@H]1CN(C)C(=O)c2cc(NC(=O)c3ccc(-c4ccccc4)cc3)ccc2OC[C@H](C)NC[C@H]1C came out at 102

Just so you know, measured activity change, negative = inhibition for CNC[C@H]1Oc2c(N)cccc2C(=O)N([C@H](C)CO)C[C@@H]1C came out at -1.95

Just so you know, measured activity change, negative = inhibition for C[C@@H]1CN([C@H](C)CO)C(=O)Cc2cc(NC(=O)CCC(F)(F)F)ccc2O[C@H]1CN(C)Cc1ccc(Oc2ccccc2)cc1 came out at 25.5

Just so you know, measured activity change, negative = inhibition for C[C@@H]1CN([C@@H](C)CO)C(=O)Cc2cc(NC(=O)CCCN(C)C)ccc2O[C@H]1CN(C)S(C)(=O)=O came out at -4.68

Just so you know, measured activity change, negative = inhibition for CNC[C@H]1Oc2c(NC(=O)Nc3ccc(F)cc3)cccc2C(=O)N([C@H](C)CO)C[C@@H]1C came out at 0.222

Just so you know, measured activity change, negative = inhibition for O=C(C[C@H]1C[C@@H]2c3cc(NC(=O)C4CCC4)ccc3O[C@@H]2[C@H](CO)O1)NCc1ccc(Cl)cc1 came out at 4.22
